Tested on: 186277-243-T-J2-PDC complex spheroid viability
Assay: Anticancer human tumor 186277-243-T-J2-PDC patient-derived colon adenocarcinoma cell line growth inhibition [POLQ]
Conditions: second compound 0.1 µM; first compound 0.000316 µM; active compounds read low
Method: Multicellular complex tumor spheroid response to Polymerase (POL) inhibitors (novobiocin, ART-558, RP6685) in combination with a variety of drugs and investigational agents in selected tumor cell lines The POL inhibitors (novobiocin, ART-558, and RP6685) were evaluated both individually and in combination with standard of care and investigational anticancer small molecules within a complex spheroid model of solid tumors. . […]
Please respond with reported viability, T/C for every item in the list.
Only the number, expressed in %, is required.

Exercise: Please tell me: viability, T/C of Cn1ncnc1[C@H]1c2n[nH]c(=O)c3cc(F)cc(c23)N[C@@H]1c1ccc(F)cc1 + Cc1cccc(N(C)C(=O)C2C(O)CCN2c2nc(C)cc(C(F)(F)F)c2C#N)c1 , system 186277-243-T-J2-PDC complex spheroid viability?
Solution: 87.9

Exercise: Please tell me: viability, T/C of CC[C@@]1(O)C(=O)OCc2c1cc1n(c2=O)Cc2cc3c(CN(C)C)c(O)ccc3nc2-1 + Cc1cccc(N(C)C(=O)C2C(O)CCN2c2nc(C)cc(C(F)(F)F)c2C#N)c1 , system 186277-243-T-J2-PDC complex spheroid viability?
Solution: 102

Exercise: Please tell me: viability, T/C of CC[C@@]1(O)C(=O)OCc2c1cc1n(c2=O)Cc2cc3c(CN(C)C)c(O)ccc3nc2-1 + COC1C(OC(N)=O)C(O)C(Oc2ccc3c(O)c(NC(=O)c4ccc(O)c(CC=C(C)C)c4)c(=O)oc3c2C)OC1(C)C , system 186277-243-T-J2-PDC complex spheroid viability?
Solution: 96.1

Exercise: Please tell me: viability, T/C of CC[C@@]1(O)C(=O)OCc2c1cc1n(c2=O)Cc2cc3c(CN(C)C)c(O)ccc3nc2-1 + Nc1ccc(C#CCN(C(=O)Cc2ncc(C(F)(F)F)cc2C(F)(F)F)c2ccc(F)cc2)nn1 , system 186277-243-T-J2-PDC complex spheroid viability?
Solution: 109

Exercise: Please tell me: viability, T/C of Cn1ncnc1[C@H]1c2n[nH]c(=O)c3cc(F)cc(c23)N[C@@H]1c1ccc(F)cc1 + COC1C(OC(N)=O)C(O)C(Oc2ccc3c(O)c(NC(=O)c4ccc(O)c(CC=C(C)C)c4)c(=O)oc3c2C)OC1(C)C , system 186277-243-T-J2-PDC complex spheroid viability?
Solution: 103

Exercise: Please tell me: viability, T/C of Cn1ncnc1[C@H]1c2n[nH]c(=O)c3cc(F)cc(c23)N[C@@H]1c1ccc(F)cc1 + Nc1ccc(C#CCN(C(=O)Cc2ncc(C(F)(F)F)cc2C(F)(F)F)c2ccc(F)cc2)nn1 , system 186277-243-T-J2-PDC complex spheroid viability?
Solution: 103

* * *

Please respond with reported viability, T/C for every item in the list.
System: 186277-243-T-J2-PDC complex spheroid viability
Assay: Anticancer human tumor 186277-243-T-J2-PDC cell line growth inhibition [POLQ];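 further: spheroids exposed to compounds for seven days; 100% = DMSO vehicle control viability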
Settings: second compound 0.0316 µM; first compound 0.316 µM; active compounds read low
Experimental: Multicellular complex tumor spheroid response to Polymerase (POL) inhibitors (novobiocin, ART-558, RP6685) in combination with a variety of drugs and investigational agents in selected tumor cell lines The POL inhibitors (novobiocin, ART-558, and RP6685) were evaluated both individually and in combination with standard of care and investigational anticancer small molecules within a complex spheroid model of solid tumors. . […]

Exercise: Could you share which viability, T/C value was measured for CNCc1ccc(-c2[nH]c3cc(F)cc4c3c2CCNC4=O)cc1 + Cc1cccc(N(C)C(=O)C2C(O)CCN2c2nc(C)cc(C(F)(F)F)c2C#N)c1 ?
Solution: 104%

Exercise: Could you share which viability, T/C value was measured for O=c1[nH]cc(F)c(=O)[nH]1 + COC1C(OC(N)=O)C(O)C(Oc2ccc3c(O)c(NC(=O)c4ccc(O)c(CC=C(C)C)c4)c(=O)oc3c2C)OC1(C)C ?
Solution: 104%

Exercise: Could you share which viability, T/C value was measured for CCc1cc2c(N3CCc4c(cc(Cn5ccnc5)cc4-c4cn(C)nc4C(F)(F)F)C3=O)cc(C)nc2c(OC)n1 + COC1C(OC(N)=O)C(O)C(Oc2ccc3c(O)c(NC(=O)c4ccc(O)c(CC=C(C)C)c4)c(=O)oc3c2C)OC1(C)C ?
Solution: 101%

Exercise: Could you share which viability, T/C value was measured for O=C(Nc1ccc(O)c(NS(=O)(=O)c2ccc(F)cc2)c1)c1ccc(-c2ccccc2)cc1 + Nc1ccc(C#CCN(C(=O)Cc2ncc(C(F)(F)F)cc2C(F)(F)F)c2ccc(F)cc2)nn1 ?
Solution: 92.4%

Exercise: Could you share which viability, T/C value was measured for O=C(Nc1ccc(O)c(NS(=O)(=O)c2ccc(F)cc2)c1)c1ccc(-c2ccccc2)cc1 + Cc1cccc(N(C)C(=O)C2C(O)CCN2c2nc(C)cc(C(F)(F)F)c2C#N)c1 ?
Solution: 108%

Exercise: Could you share which viability, T/C value was measured for CCCS(=O)(=O)Nc1ccc(F)c(C(=O)c2c[nH]c3ncc(-c4ccc(Cl)cc4)cc23)c1F + COC1C(OC(N)=O)C(O)C(Oc2ccc3c(O)c(NC(=O)c4ccc(O)c(CC=C(C)C)c4)c(=O)oc3c2C)OC1(C)C ?
Solution: 86.5%

Exercise: Could you share which viability, T/C value was measured for C#Cc1c(F)ccc2cc(O)cc(-c3ncc4c(N5CC6CCC(C5)N6)nc(OCC56CCCN5CC(F)C6)nc4c3F)c12 (stereo unspecified) + Cc1cccc(N(C)C(=O)C2C(O)CCN2c2nc(C)cc(C(F)(F)F)c2C#N)c1 ?
Solution: 21.4%

Exercise: Could you share which viability, T/C value was measured for Nc1ccn(C2OC(CO)C(O)C2(F)F)c(=O)n1 (stereo unspecified) + COC1C(OC(N)=O)C(O)C(Oc2ccc3c(O)c(NC(=O)c4ccc(O)c(CC=C(C)C)c4)c(=O)oc3c2C)OC1(C)C ?
Solution: 6.22%

Exercise: Could you share which viability, T/C value was measured for COc1cc2cc(C(=O)CCC(=O)O)sc2cc1OC + Nc1ccc(C#CCN(C(=O)Cc2ncc(C(F)(F)F)cc2C(F)(F)F)c2ccc(F)cc2)nn1 ?
Solution: 92.9%

Exercise: Could you share which viability, T/C value was measured for COc1cccc2c1C(=O)c1c(O)c3c(c(O)c1C2=O)CC(O)(C(=O)CO)CC3OC1CC(N)C(O)C(C)O1 (stereo unspecified) + Cc1cccc(N(C)C(=O)C2C(O)CCN2c2nc(C)cc(C(F)(F)F)c2C#N)c1 ?
Solution: 10.2%

Exercise: Could you share which viability, T/C value was measured for CC1COCCN1c1cc(C2(S(C)(=N)=O)CC2)nc(-c2ccnc3[nH]ccc23)n1 (stereo unspecified) + Cc1cccc(N(C)C(=O)C2C(O)CCN2c2nc(C)cc(C(F)(F)F)c2C#N)c1 ?
Solution: 99%
